Reported pKi against D(3) dopamine receptor (Rattus norvegicus), gathered from multiple publications, appears below.
Recall that pKi is obtained by taking minus log10 of the concentration measured in molar.

Reference set, count: 5
In [3]: df
Out[3]:
                                   compound  measurement
0  COc1ccc2c(c1)CCC1CN(CC[C@H]3CC[C@H](NC(=O)c4cnc5ccccc5n4)CC3)CCN21 (stereo partly specified)         6.82
1  CCCN(CCN1CCN(c2ccccc2)CC1)[C@H]1CCc2ccc(N)cc2C1         7.34
2  CCCN(CCN1CCN(c2ccc(-c3ccncc3)cc2)CC1)C1CCc2c(O)cccc2C1 (single isomer, unassigned; (-))         8.82
3  CCCN(CCN1CCN(c2ccc(-c3cccc(OC)c3)cc2)CC1)C1CCc2nc(N)sc2C1 (racemic)         8.68
4  O=C(NCCCCN1CCN(c2cccc(Cl)c2Cl)CC1)c1cccc2c1-c1ccccc1C2=O         8.85

Problem: Report value only: pKi, D(3) dopamine receptor (Rattus norvegicus), `COc1ccccc1N1CCN(CCCNS(=O)(=O)c2ccc3ccccc3c2)CC1`
Solution: 7.23

Problem: Report value only: pKi, D(3) dopamine receptor (Rattus norvegicus), `CCCN(CC[C@H]1CC[C@H](NS(=O)(=O)c2cccc3ccccc23)CC1)[C@H]1CCc2nc(N)sc2C1`
Solution: 8.82

Problem: Report value only: pKi, D(3) dopamine receptor (Rattus norvegicus), CCCN(CCN1CCN(c2ccccc2)CC1)C1CCc2nnsc2C1 (stereo unspecified)
Solution: 6.80

Problem: Report value only: pKi, D(3) dopamine receptor (Rattus norvegicus), `COc1ccccc1N1CCN(CCNC(=O)c2ccc3ccccc3c2)CC1`
Solution: 6.95

Problem: Report value only: pKi, D(3) dopamine receptor (Rattus norvegicus), Oc1ccc2c(c1)C[C@H]1[C@@H](CCCN1CCN1CCN(c3cccc(Cl)c3Cl)CC1)C2 (racemic)
Solution: 6.59

Problem: Report value only: pKi, D(3) dopamine receptor (Rattus norvegicus), `COc1c(C(=O)N[C@@H]2CCN(Cc3ccccc3)C2)cc(Br)c2ccccc12`
Solution: 8.80

---

Reported pKi against D(3) dopamine receptor (Rattus norvegicus, UniProt P19020), gathered from multiple publications, appears below.
Sequence (P19020 whole entry): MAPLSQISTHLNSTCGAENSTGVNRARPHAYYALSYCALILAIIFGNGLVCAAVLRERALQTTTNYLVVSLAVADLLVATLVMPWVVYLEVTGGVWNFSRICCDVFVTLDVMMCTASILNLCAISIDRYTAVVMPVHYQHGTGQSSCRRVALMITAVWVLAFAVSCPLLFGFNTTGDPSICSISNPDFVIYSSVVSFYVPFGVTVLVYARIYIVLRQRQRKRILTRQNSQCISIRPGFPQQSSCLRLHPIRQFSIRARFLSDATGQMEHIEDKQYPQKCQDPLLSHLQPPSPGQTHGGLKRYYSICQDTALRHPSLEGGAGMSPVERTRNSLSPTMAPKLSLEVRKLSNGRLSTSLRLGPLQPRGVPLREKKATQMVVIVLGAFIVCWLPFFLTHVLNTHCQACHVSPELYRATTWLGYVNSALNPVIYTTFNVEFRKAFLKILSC
Recall that pKi is obtained by taking minus log10 of the concentration measured in molar.

Reference set, count: 5
>>> df
                                   molecule  measurement
0  CCCN(CCN1CCN(C(=O)c2ccc3[nH]ccc3c2)CC1)C1CCc2nc(N)sc2C1 (racemic)         8.39
1  COc1cc(Br)cc(C(=O)NCCCCN2CCN(c3cccc(Cl)c3Cl)CC2)c1OC         8.70
2  CCCN(CCN1CCN(c2cccnc2)CC1)C1CCc2ccc(O)cc2C1 (centres undefined)         8.54
3  COc1ccccc1N1CCN(CCNCc2coc(-c3cc4ccccc4o3)n2)CC1         6.12
4  O=C1CC2(CCCC2)CC(=O)N1CCN1CCN(c2ccccc2F)CC1         8.28

Problem: Report value only: pKi, D(3) dopamine receptor (Rattus norvegicus, UniProt P19020), `CCCN(CC[C@H]1CC[C@H](NC(=O)c2ccc(-n3cncn3)cc2)CC1)[C@H]1CCc2nc(N)sc2C1`
Solution: 8.62

Problem: Report value only: pKi, D(3) dopamine receptor (Rattus norvegicus, UniProt P19020), `COc1ccccc1N1CCN(CCNCc2coc(-c3ccc4ccccc4c3)n2)CC1`
Solution: 6.53

Problem: Report value only: pKi, D(3) dopamine receptor (Rattus norvegicus, UniProt P19020), Cn1c(SCCCN2CCOC(c3ccc(C(F)(F)F)cc3)C2)nnc1-c1ccsc1 (racemic)
Solution: 7.00

Problem: Report value only: pKi, D(3) dopamine receptor (Rattus norvegicus, UniProt P19020), CCCN(CCN1CCN(c2ccccc2)CC1)C1CCc2ccc(NS(=O)(=O)c3ccc(C(F)(F)F)cc3)cc2C1 (centres undefined)
Solution: 8.06
